testProtocol: Bidirectional transport assay across BCRP KO Caco-2 monolayers
runParameters: human, pH 7.4
assayReadout: Papp A→B at 1 h, 5 μM (×10⁻⁶ cm/s)
Numbers only, in ×10⁻⁶ cm/s.

Look up and state reported Papp A→B at 1 h, 5 μM for Cc1c(O)cccc1C(=O)N[C@@H](CSc1ccccc1)[C@H](O)CN1C[C@H]2CCCC[C@H]2C[C@H]1C(=O)NC(C)(C)C [Nelfinavir]
2.21

Give Papp A→B at 1 h, 5 μM for the following compound: CC(C)CN(C[C@@H](O)[C@H](Cc1ccccc1)NC(=O)O[C@H]1CO[C@H]2OCC[C@H]21)S(=O)(=O)c1ccc(N)cc1 [Darunavir]
1.75

Assign Papp A→B at 1 h, 5 μM to the following record: Cc1cccc(C)c1OCC(=O)N[C@@H](Cc1ccccc1)[C@@H](O)C[C@H](Cc1ccccc1)NC(=O)[C@H](C(C)C)N1CCCNC1=O [Lopinavir, lopinavir]
5.79

Now for a further compound.
Return value of Papp A→B at 1 h, 5 μM for input C[C@H]1O[C@@H](O[C@H]2[C@@H](O)C[C@H](O[C@H]3[C@@H](O)C[C@H](O[C@H]4CC[C@@]5(C)[C@H](CC[C@@H]6[C@@H]5C[C@@H](O)[C@]5(C)[C@@H](C7=CC(=O)OC7)CC[C@]65O)C4)O[C@@H]3C)O[C@@H]2C)C[C@H](O)[C@@H]1O [Digoxin] , no commentary.
1.66

---

testProtocol: Bidirectional transport assay across P-gp/BCRP double KO Caco-2 monolayers
runParameters: human, pH 7.4
I'd appreciate it if you could supply Papp B→A at 1 h, 5 μM values for the items below.
One number for each entry, in ×10⁻⁶ cm/s.

Solved cases below.
Indicate its recorded Papp B→A at 1 h, 5 μM; the molecule in question is C[C@H]1O[C@@H](O[C@H]2[C@@H](O)C[C@H](O[C@H]3[C@@H](O)C[C@H](O[C@H]4CC[C@@]5(C)[C@H](CC[C@@H]6[C@@H]5C[C@@H](O)[C@]5(C)[C@@H](C7=CC(=O)OC7)CC[C@]65O)C4)O[C@@H]3C)O[C@@H]2C)C[C@H](O)[C@@H]1O [Digoxin]
2.08

Read off the recorded Papp B→A at 1 h, 5 μM for Cc1cccc(C)c1OCC(=O)N[C@@H](Cc1ccccc1)[C@@H](O)C[C@H](Cc1ccccc1)NC(=O)[C@H](C(C)C)N1CCCNC1=O [Lopinavir, lopinavir]
10.3

Give recorded Papp B→A at 1 h, 5 μM. CC(C)CN(C[C@@H](O)[C@H](Cc1ccccc1)NC(=O)O[C@H]1CO[C@H]2OCC[C@H]21)S(=O)(=O)c1ccc(N)cc1 [Darunavir]
11.5

// below: Papp B→A at 1 h, 5 μM requested for another molecule
Respond only with Papp B→A at 1 h, 5 μM recorded for Cc1c(O)cccc1C(=O)N[C@@H](CSc1ccccc1)[C@H](O)CN1C[C@H]2CCCC[C@H]2C[C@H]1C(=O)NC(C)(C)C [Nelfinavir]
3.22

---

testProtocol: Bidirectional transport assay across Caco-2 WT monolayers
runParameters: human, Caco-2, pH 7.4, Efflux ratio, WT Caco-2; 5 μM substrate; Papp(B-to-A)/Papp(A-to-B); n = 3
assayReadout: efflux ratio at 1 h, 5 μM
Give bare numbers.

Tell me efflux ratio at 1 h, 5 μM reported for Cc1c(O)cccc1C(=O)N[C@@H](CSc1ccccc1)[C@H](O)CN1C[C@H]2CCCC[C@H]2C[C@H]1C(=O)NC(C)(C)C
4.47

---
Write down efflux ratio at 1 h, 5 μM measured for item C[C@H]1O[C@@H](O[C@H]2[C@@H](O)C[C@H](O[C@H]3[C@@H](O)C[C@H](O[C@H]4CC[C@@]5(C)[C@H](CC[C@@H]6[C@@H]5C[C@@H](O)[C@]5(C)[C@@H](C7=CC(=O)OC7)CC[C@]65O)C4)O[C@@H]3C)O[C@@H]2C)C[C@H](O)[C@@H]1O
6.4

---

testProtocol: Bidirectional transport assay across P-gp/MRP2 double KO Caco-2 monolayers
runParameters: human, pH 7.4
Assign Papp B→A at 1 h, 5 μM to each entry below.
Answers are plain numbers, in ×10⁻⁶ cm/s.

Note Papp B→A at 1 h, 5 μM for the compound shown: Cc1cccc(C)c1OCC(=O)N[C@@H](Cc1ccccc1)[C@@H](O)C[C@H](Cc1ccccc1)NC(=O)[C@H](C(C)C)N1CCCNC1=O
11.5

Return Papp B→A at 1 h, 5 μM for the following compound: Cc1c(O)cccc1C(=O)N[C@@H](CSc1ccccc1)[C@H](O)CN1C[C@H]2CCCC[C@H]2C[C@H]1C(=O)NC(C)(C)C
4.51

Identify measured Papp B→A at 1 h, 5 μM corresponding to CC(C)CN(C[C@@H](O)[C@H](Cc1ccccc1)NC(=O)O[C@H]1CO[C@H]2OCC[C@H]21)S(=O)(=O)c1ccc(N)cc1
10.4

More entries:
Fill in reported Papp B→A at 1 h, 5 μM for this entry: C[C@H]1O[C@@H](O[C@H]2[C@@H](O)C[C@H](O[C@H]3[C@@H](O)C[C@H](O[C@H]4CC[C@@]5(C)[C@H](CC[C@@H]6[C@@H]5C[C@@H](O)[C@]5(C)[C@@H](C7=CC(=O)OC7)CC[C@]65O)C4)O[C@@H]3C)O[C@@H]2C)C[C@H](O)[C@@H]1O
1.87

---

testProtocol: Bidirectional transport assay across MRP2 KO Caco-2 monolayers
runParameters: human, pH 7.4, Papp A-to-B, Caco^MRP2−/−; 5 μM substrate; 1 h, 37°C, HBSS pH 7.4; n = 3
assayReadout: Papp A→B at 1 h, 5 μM (×10⁻⁶ cm/s)
One number for each entry, in ×10⁻⁶ cm/s.

// fetch Papp A→B at 1 h, 5 μM given entry Cc1c(O)cccc1C(=O)N[C@@H](CSc1ccccc1)[C@H](O)CN1C[C@H]2CCCC[C@H]2C[C@H]1C(=O)NC(C)(C)C [Nelfinavir]
4.53

---

testProtocol: Bidirectional transport assay across P-gp/BCRP double KO Caco-2 monolayers
runParameters: human, pH 7.4
assayReadout: Papp A→B at 1 h, 5 μM (×10⁻⁶ cm/s)
One number for each entry, in ×10⁻⁶ cm/s.

Some entries whose results are on file:
Supply measured Papp A→B at 1 h, 5 μM of Cc1cccc(C)c1OCC(=O)N[C@@H](Cc1ccccc1)[C@@H](O)C[C@H](Cc1ccccc1)NC(=O)[C@H](C(C)C)N1CCCNC1=O in your reply.
15.2

Provide one value: measured Papp A→B at 1 h, 5 μM of Cc1c(O)cccc1C(=O)N[C@@H](CSc1ccccc1)[C@H](O)CN1C[C@H]2CCCC[C@H]2C[C@H]1C(=O)NC(C)(C)C
7.54

Below are 2 molecules. Give each one its Papp A→B at 1 h, 5 μM.
1. C[C@H]1O[C@@H](O[C@H]2[C@@H](O)C[C@H](O[C@H]3[C@@H](O)C[C@H](O[C@H]4CC[C@@]5(C)[C@H](CC[C@@H]6[C@@H]5C[C@@H](O)[C@]5(C)[C@@H](C7=CC(=O)OC7)CC[C@]65O)C4)O[C@@H]3C)O[C@@H]2C)C[C@H](O)[C@@H]1O
2. CC(C)CN(C[C@@H](O)[C@H](Cc1ccccc1)NC(=O)O[C@H]1CO[C@H]2OCC[C@H]21)S(=O)(=O)c1ccc(N)cc1

1: 2.42; 2: 12.6

---

testProtocol: Bidirectional transport assay across Caco-2 WT monolayers
runParameters: human, Caco-2, pH 7.4
Kindly state Papp B→A at 1 h, 5 μM for each of the entries shown.
Give bare numbers, in ×10⁻⁶ cm/s.

Reference set (2 entries):
Provide only the value of recorded Papp B→A at 1 h, 5 μM for Cc1c(O)cccc1C(=O)N[C@@H](CSc1ccccc1)[C@H](O)CN1C[C@H]2CCCC[C@H]2C[C@H]1C(=O)NC(C)(C)C
12.2

Determine from records and report Papp B→A at 1 h, 5 μM for Cc1cccc(C)c1OCC(=O)N[C@@H](Cc1ccccc1)[C@@H](O)C[C@H](Cc1ccccc1)NC(=O)[C@H](C(C)C)N1CCCNC1=O
24.5

We next turn to a different compound, shown below.
Consider the compound C[C@H]1O[C@@H](O[C@H]2[C@@H](O)C[C@H](O[C@H]3[C@@H](O)C[C@H](O[C@H]4CC[C@@]5(C)[C@H](CC[C@@H]6[C@@H]5C[C@@H](O)[C@]5(C)[C@@H](C7=CC(=O)OC7)CC[C@]65O)C4)O[C@@H]3C)O[C@@H]2C)C[C@H](O)[C@@H]1O and give its recorded Papp B→A at 1 h, 5 μM.
9.33

---

So I've got a bunch of compounds here, and I need their Papp A→B at 1 h, 5 μM values.
testProtocol: Bidirectional transport assay across P-gp/MRP2 double KO Caco-2 monolayers
runParameters: human, pH 7.4
Answers are plain numbers, in ×10⁻⁶ cm/s.

Recall and state the measured Papp A→B at 1 h, 5 μM for Cc1c(O)cccc1C(=O)N[C@@H](CSc1ccccc1)[C@H](O)CN1C[C@H]2CCCC[C@H]2C[C@H]1C(=O)NC(C)(C)C [Nelfinavir] .
4.23

Please indicate Papp A→B at 1 h, 5 μM recorded for C[C@H]1O[C@@H](O[C@H]2[C@@H](O)C[C@H](O[C@H]3[C@@H](O)C[C@H](O[C@H]4CC[C@@]5(C)[C@H](CC[C@@H]6[C@@H]5C[C@@H](O)[C@]5(C)[C@@H](C7=CC(=O)OC7)CC[C@]65O)C4)O[C@@H]3C)O[C@@H]2C)C[C@H](O)[C@@H]1O [Digoxin]
1.95

Specify Papp A→B at 1 h, 5 μM for CC(C)CN(C[C@@H](O)[C@H](Cc1ccccc1)NC(=O)O[C@H]1CO[C@H]2OCC[C@H]21)S(=O)(=O)c1ccc(N)cc1 [Darunavir] and stop.
10.1

Switching to the query record.
Annotate the compound Cc1cccc(C)c1OCC(=O)N[C@@H](Cc1ccccc1)[C@@H](O)C[C@H](Cc1ccccc1)NC(=O)[C@H](C(C)C)N1CCCNC1=O [Lopinavir, lopinavir] with its measured Papp A→B at 1 h, 5 μM.
13.8
